Values from paper PMC5929992

# tested.system: Lck SH2 domain (residues 122 to 226) (mouse, UniProt P06240 122-226)
# Sequence (P06240 122-226): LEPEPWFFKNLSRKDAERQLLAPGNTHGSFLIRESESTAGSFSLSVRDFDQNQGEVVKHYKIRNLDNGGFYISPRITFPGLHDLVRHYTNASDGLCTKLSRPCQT
# procedure.text: SPR
Non-standard residues stand in square brackets, D forms with d. No end group written: not given here. pY = N[C@@H](Cc1ccc(OP(=O)(O)O)cc1)C(=O)O
recorded.endpoint: pKd
Would you please state pKd, meaning minus log10 of the concentration in mol/L, as a bare number?

Consider the binder PRRPGLTRKPYQA[pY]AAARDFAAYRP (peptide, UniProt P31041 194-218, looked up, also: biotinylated, position not given here) [Biotinylated CD28CD 25-mer peptide phosphorylated at Tyr207, double mutant P206A/P209A] and give its measured pKd. 4.20
